Data provenance is ChEMBL document CHEMBL1139415.

Target: D(1A) dopamine receptor (Homo sapiens, UniProt P21728)
Sequence (P21728 whole entry): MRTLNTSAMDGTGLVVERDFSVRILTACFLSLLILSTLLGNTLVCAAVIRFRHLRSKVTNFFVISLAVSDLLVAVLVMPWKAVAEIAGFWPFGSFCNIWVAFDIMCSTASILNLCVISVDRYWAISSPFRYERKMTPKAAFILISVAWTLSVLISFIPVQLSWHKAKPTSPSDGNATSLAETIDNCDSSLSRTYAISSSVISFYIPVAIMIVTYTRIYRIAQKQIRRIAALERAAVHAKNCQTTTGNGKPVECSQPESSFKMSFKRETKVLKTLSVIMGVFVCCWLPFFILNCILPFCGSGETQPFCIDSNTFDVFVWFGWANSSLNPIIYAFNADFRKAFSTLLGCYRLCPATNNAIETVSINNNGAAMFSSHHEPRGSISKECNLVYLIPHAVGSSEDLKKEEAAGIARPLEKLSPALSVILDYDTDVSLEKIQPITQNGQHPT
Assay: Displacement of radioligand from dopamine D1 receptor
reported metric: pIC50
Kindly note that pIC50 refers to -log10 of the concentration in mol/L and answer with the value alone.

Q: Read off the recorded pIC50 for `Cc1c(C(=O)c2ccc(Cl)cc2)c2ccc(OC(F)(F)F)cc2n1Cc1cccc(O[C@H](C)C(=O)O)c1`
Ans: 5.82

* * *

Molecular target: Kappa-type opioid receptor (Homo sapiens)
Sequence (P41145 whole entry): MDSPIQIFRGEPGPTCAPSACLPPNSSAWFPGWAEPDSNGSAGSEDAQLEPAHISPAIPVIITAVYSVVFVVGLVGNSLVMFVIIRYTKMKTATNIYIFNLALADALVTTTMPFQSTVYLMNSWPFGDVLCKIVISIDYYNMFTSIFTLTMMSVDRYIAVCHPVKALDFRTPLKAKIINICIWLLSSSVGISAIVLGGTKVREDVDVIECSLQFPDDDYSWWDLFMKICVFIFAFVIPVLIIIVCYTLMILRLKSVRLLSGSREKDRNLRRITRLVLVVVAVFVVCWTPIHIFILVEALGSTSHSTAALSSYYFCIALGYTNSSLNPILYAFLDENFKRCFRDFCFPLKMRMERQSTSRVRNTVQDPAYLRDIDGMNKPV
reported metric: pIC50
Kindly note that pIC50 refers to -log10 of the concentration in mol/L and answer with the value alone.

Q: Answer briefly: pIC50 recorded on Kappa-type opioid receptor (Homo sapiens) for `Cc1c(C(=O)c2ccc(Cl)cc2)c2ccc(OC(F)(F)F)cc2n1Cc1cccc(O[C@H](C)C(=O)O)c1`
Ans: 5.46

* * *

Molecular target: Prostaglandin F2-alpha receptor (Homo sapiens, UniProt P43088)
Sequence (P43088 whole entry): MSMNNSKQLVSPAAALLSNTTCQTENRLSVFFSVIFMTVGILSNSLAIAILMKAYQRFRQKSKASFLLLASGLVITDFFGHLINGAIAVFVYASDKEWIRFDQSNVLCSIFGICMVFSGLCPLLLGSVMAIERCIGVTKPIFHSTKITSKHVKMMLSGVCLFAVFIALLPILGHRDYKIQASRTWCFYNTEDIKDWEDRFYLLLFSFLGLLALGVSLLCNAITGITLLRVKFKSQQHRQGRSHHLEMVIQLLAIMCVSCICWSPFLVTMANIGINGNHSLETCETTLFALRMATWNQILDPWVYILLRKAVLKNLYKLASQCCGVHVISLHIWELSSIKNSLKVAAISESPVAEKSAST
reported metric: pIC50
Kindly note that pIC50 refers to -log10 of the concentration in mol/L and answer with the value alone.

Q: Answer briefly: pIC50 recorded on Prostaglandin F2-alpha receptor (Homo sapiens, UniProt P43088) for `Cc1c(C(=O)c2ccc(Cl)cc2)c2ccc(OC(F)(F)F)cc2n1Cc1cccc(O[C@H](C)C(=O)O)c1`
Ans: 5.56

* * *

Molecular target: Peroxisome proliferator-activated receptor gamma (Homo sapiens)
Sequence (P37231 whole entry, the tested form may be a part): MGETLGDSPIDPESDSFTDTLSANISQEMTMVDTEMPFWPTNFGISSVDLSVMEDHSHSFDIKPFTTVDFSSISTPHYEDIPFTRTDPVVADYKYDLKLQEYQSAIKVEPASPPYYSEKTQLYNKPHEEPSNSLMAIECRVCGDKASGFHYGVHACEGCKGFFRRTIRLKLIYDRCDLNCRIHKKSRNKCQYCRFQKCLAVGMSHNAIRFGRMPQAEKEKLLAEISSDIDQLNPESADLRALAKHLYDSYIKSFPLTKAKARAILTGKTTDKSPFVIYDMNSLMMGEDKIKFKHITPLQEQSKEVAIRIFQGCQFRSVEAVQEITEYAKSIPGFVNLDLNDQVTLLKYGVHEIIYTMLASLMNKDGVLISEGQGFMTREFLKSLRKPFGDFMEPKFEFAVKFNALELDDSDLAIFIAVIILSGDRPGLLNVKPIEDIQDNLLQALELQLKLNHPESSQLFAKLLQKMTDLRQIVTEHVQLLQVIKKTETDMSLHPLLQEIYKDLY
Assay: Agonist activity at human PPARgamma receptor expressed in african green monkey COS cells after 48 hrs by GAL4 transactivation assay
Let's look at some compounds and their measured log10 of EC50.
Heads up, the numbers here are log10 of EC50 in nM units.

Check out these entries, answers already filled in.
COc1ccc(C(=O)c2c(C)n(Cc3cc(O[C@@H](C)C(=O)O)ccc3F)c3nc(C)ccc23)cc1 :: 0.30
Cc1c(Oc2ccc(Cl)cc2)c2cccnc2n1Cc1ccc(F)c(O[C@@H](C)C(=O)O)c1 :: 2.15
COc1ccc(C(=O)c2c(C)n(Cc3cccc(O[C@H](C)C(=O)O)c3)c3ncccc23)cc1 :: 3.47

Q: Read off the recorded log10 of EC50 for `COc1ccc(C(=O)c2c(C)n(Cc3ccc(F)c(O[C@@H](C)C(=O)O)c3)c3nc(OC)ccc23)cc1`
Ans: 0.00

Q: Read off the recorded log10 of EC50 for `Cc1c(Oc2ccc(Cl)cc2)c2cccnc2n1Cc1cc(O[C@@H](C)C(=O)O)ccc1Cl`
Ans: 1.56

* * *

Target: Polyunsaturated fatty acid 5-lipoxygenase (Homo sapiens, UniProt P09917)
Sequence (P09917 whole entry): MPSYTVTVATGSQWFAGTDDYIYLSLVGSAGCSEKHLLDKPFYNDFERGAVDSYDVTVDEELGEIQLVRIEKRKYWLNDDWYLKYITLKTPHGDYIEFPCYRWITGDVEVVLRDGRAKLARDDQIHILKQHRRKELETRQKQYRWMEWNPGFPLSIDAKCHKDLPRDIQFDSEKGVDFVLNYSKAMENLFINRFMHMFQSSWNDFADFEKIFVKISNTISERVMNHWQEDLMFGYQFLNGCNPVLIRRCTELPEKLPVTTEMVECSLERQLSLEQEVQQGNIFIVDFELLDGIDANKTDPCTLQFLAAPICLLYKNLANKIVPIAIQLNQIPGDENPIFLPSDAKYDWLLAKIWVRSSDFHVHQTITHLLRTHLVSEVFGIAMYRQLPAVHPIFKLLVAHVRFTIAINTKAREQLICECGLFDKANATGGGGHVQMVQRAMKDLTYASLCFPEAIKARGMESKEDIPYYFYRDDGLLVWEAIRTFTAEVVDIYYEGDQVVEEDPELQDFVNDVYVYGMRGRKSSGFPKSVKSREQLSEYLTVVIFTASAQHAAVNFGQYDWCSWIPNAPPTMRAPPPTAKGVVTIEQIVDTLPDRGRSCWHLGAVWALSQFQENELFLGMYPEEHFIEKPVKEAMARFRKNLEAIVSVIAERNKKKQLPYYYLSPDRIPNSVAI
reported metric: pIC50
Kindly note that pIC50 refers to -log10 of the concentration in mol/L and answer with the value alone.

Q: Read off the recorded pIC50 for `Cc1c(C(=O)c2ccc(Cl)cc2)c2ccc(OC(F)(F)F)cc2n1Cc1cccc(O[C@H](C)C(=O)O)c1`
Ans: 5.79

* * *

Molecular target: Prostaglandin E2 receptor EP3 subtype (Homo sapiens, UniProt P43115)
Sequence (P43115 whole entry): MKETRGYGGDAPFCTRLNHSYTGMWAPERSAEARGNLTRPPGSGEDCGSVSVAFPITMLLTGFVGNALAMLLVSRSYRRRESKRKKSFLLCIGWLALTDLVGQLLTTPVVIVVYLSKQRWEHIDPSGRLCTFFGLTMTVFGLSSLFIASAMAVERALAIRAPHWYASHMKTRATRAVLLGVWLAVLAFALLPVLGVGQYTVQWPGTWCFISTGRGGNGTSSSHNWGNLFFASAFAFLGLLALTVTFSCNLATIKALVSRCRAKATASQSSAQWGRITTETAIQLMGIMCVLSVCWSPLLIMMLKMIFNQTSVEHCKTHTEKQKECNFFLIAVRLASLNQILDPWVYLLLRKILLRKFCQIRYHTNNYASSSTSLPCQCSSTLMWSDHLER
reported metric: pIC50
Kindly note that pIC50 refers to -log10 of the concentration in mol/L and answer with the value alone.

Q: Read off the recorded pIC50 for `Cc1c(C(=O)c2ccc(Cl)cc2)c2ccc(OC(F)(F)F)cc2n1Cc1cccc(O[C@H](C)C(=O)O)c1`
Ans: 5.91
